Values from the supplement of paper PMC9233669

System: biotinyl-Trp-oxazolone
experimentalDetails: self-aminoacylation, catalytic enhancement (BWO) (fold over background); higher = more active; k-Seq, kA / k0A0; sequences stand for … in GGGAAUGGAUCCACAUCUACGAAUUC…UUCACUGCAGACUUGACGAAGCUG
This sample holds only a part of the variants without activity.
# cutoff 1 applies to self-aminoacylation; >= gives Satisfied, < gives Not satisfied

Answered cases to consult:
Could you tell me if the measured self-aminoacylation of AUUACCCUGGCUAUCGAGUGA [Fam2.1 aminoacylation ribozyme variant] reaches 1 or more? Satisfied

Identify whether the reported self-aminoacylation of the following sequence is 1 or greater: ACGUUUGCUAAUAGUCGCAAA [Fam3.1 aminoacylation ribozyme variant] Satisfied

Hello, I need to know if CUAGUUCAAACAAACGGUCUG [Fam1A.1 aminoacylation ribozyme variant] has measured self-aminoacylation not below 1. Thanks! Not satisfied

Quick check, self-aminoacylation >= 1? AUUUCCCUGGUAAUCGAGUGA [Fam2.1 aminoacylation ribozyme variant] Satisfied

Answer whether self-aminoacylation of AAGUCCGCUAAUAGUCGCAAG [Fam3.1 aminoacylation ribozyme variant] is greater than or equal to 1. Satisfied

Test whether the sequence AUUACCUUGGUCAUCGGGUGA [Fam2.1 aminoacylation ribozyme variant] records self-aminoacylation of 1 or higher. Satisfied

***
Could you tell me if the measured self-aminoacylation of AAGUUUGCUAAUAGACGCAUG [Fam3.1 aminoacylation ribozyme variant] reaches 1 or more? Not satisfied

###

System: biotinyl-Trp-oxazolone
experimentalDetails: self-aminoacylation, catalytic enhancement (BWO) (fold over background); higher = more active; k-Seq, kA / k0A0; sequences stand for … in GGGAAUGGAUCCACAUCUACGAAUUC…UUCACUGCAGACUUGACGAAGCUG
This sample holds only a part of the variants without activity.
# self-aminoacylation >= 2 gives Met, anything below gives Not met

Record AUUCACCUAGUUCAUCGGGCG [Fam2.2 aminoacylation ribozyme variant] ; criterion: self-aminoacylation no lower than 2. Met? Met

API: above_or_equal(metric=self-aminoacylation, cutoff=2) for item AUUAACCUAGGGCAUCGGGUG [Fam2.2 aminoacylation ribozyme variant] Met

Does self-aminoacylation meet or surpass 2 for AUUGACCUAGGACAUCGGGUG [Fam2.2 aminoacylation ribozyme variant] ? Met

New cases:
I'd appreciate it if you could say whether AUUACCCUGGCCAUCGAGUUA [Fam2.1 aminoacylation ribozyme variant] has self-aminoacylation at least equal to 2. Not met

Hi, just wondering whether AACUUUGCUAAUAGUCGGAAG [Fam3.1 aminoacylation ribozyme variant] shows self-aminoacylation of 2 or higher. Not met

Tell me whether self-aminoacylation is at least 2 here: AUUACCCUGGUCAUCGAGCCA [Fam2.1 aminoacylation ribozyme variant] Met

###

# self-aminoacylation per entry
Test system: biotinyl-Ile-oxazolone
experimentalDetails: self-aminoacylation, catalytic enhancement (BIO) (fold over background); higher = more active; k-Seq, kA / k0A0; sequences stand for … in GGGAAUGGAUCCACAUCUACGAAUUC…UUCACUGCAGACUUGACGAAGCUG
Variants at the floor of the assay were thinned out.
Field format: numeric only.

Examples with their reported self-aminoacylation follow.
Please give the measured self-aminoacylation for this sequence: AUUACCCUGGUUAUUGAGUGA [Fam2.1 aminoacylation ribozyme variant] 6.24

self-aminoacylation for CCACACUUCAAGCAACCAGUC [Fam1B.1 aminoacylation ribozyme variant] ? 1.08

We now examine a further sequence.
If you can, please state the reported self-aminoacylation value of AUCCACCUAGGUCAUCGAGUG [Fam2.2 aminoacylation ribozyme variant] . 6.55
